System: Triticum aestivum (TRZAS)
Type: in vivo
Settings: crop plant compatibility, 80 g/ha, effect vs untreated controls
Procedure: Seeds of monocotyledonous and dicotyledonous weeds and crop plants are placed in sandy loam in plastic or organic planting pots, covered with soil and cultivated in a greenhouse under controlled growth conditions. 2 to 3 weeks after sowing, the test plants are treated at the one-leaf stage. […]
Measured metric: Post-emergence action against TRZAS in % (%)
Numbers only, in %.

Field: example entries. Status: answers known.
Compound	Target or test system	Reported value
COC(=O)CN(C)C(=O)COc1nn(-c2ccccn2)c(-c2ccc(F)nc2)c1Br	Triticum aestivum (TRZAS)	0
COC(=O)C1CCN(C(=O)COc2nn(-c3ccccn3)c(-c3ccc(F)nc3)c2Br)C1 (centres unmarked)	Triticum aestivum (TRZAS)	10
CCOC(=O)COc1nn(-c2ccnc(Cl)c2)c(-c2ccc(F)nc2)c1Br	Triticum aestivum (TRZAS)	0

# map each compound to its Post-emergence action against TRZAS in %
1. COC(=O)C=CC(C)NC(=O)COc1nn(-c2ccccn2)c(-c2ccc(F)nc2)c1Br (centres unmarked) [Example I-297]
2. CCOC(=O)COc1nn(-c2cccc(C)n2)c(-c2ccc(F)nc2)c1Cl

1. 10
2. 10

====

Exercise: for every item that follows, state its recorded Post-emergence action against ORYSA in %.
System: Oryza sativa (ORYSA)
Type: in vivo
Details: crop plant compatibility, 80 g/ha, effect in comparison to untreated controls
Numbers only, in %.

The examples below pair each entry with its known result.
Compound	Reported value
O=C(O)CSc1nn(-c2ccccn2)c(-c2cncc(F)c2)c1Cl	0
O=C(CSc1nn(-c2ccccn2)c(-c2cncc(F)c2)c1Br)NS(=O)(=O)c1ccccc1	0
COC(=O)CCOC(=O)[C@@H](C)Oc1nn(-c2ccccn2)c(-c2cncc(F)c2)c1Br	10
COCCOCCOC(=O)[C@@H](C)Oc1nn(-c2ncccc2F)c(-c2ccc(F)nc2)c1Br	20
CC(=O)CNC(=O)COc1nn(-c2ccnc(F)c2)c(-c2ccc(F)nc2)c1Br	0
COCCOC(=O)COc1nn(-c2ncccc2F)c(-c2ccc(F)nc2)c1Br	20

Answer for every listed entry: what is its Post-emergence action against ORYSA in %? The entries follow.
1. COCCOC(=O)COc1nn(-c2cccnc2C)c(-c2cncc(F)c2)c1Br
2. COC(=O)CCOC(=O)COc1nn(-c2ncccc2C(F)(F)F)c(-c2cncc(F)c2)c1Br
3. C[C@@H](Oc1nn(-c2ncccc2F)c(-c2ccc(F)nc2)c1F)C(=O)O
4. COC(=O)CCOC(=O)[C@@H](C)Oc1nn(-c2ccccn2)c(-c2ccc(Cl)nc2)c1Cl
5. CCOC(=O)COc1nn(-c2nc(F)ccc2F)c(-c2ccc(F)nc2)c1Cl
6. COC(=O)CNC(=O)COc1nn(-c2ncccc2C(F)(F)F)c(-c2cncc(F)c2)c1Br

1: 0; 2: 0; 3: 0; 4: 0; 5: 20; 6: 0

Your task in this section: give Post-emergence action against ORYSA in % for each listed record.
1. C[C@@H](Oc1nn(-c2nc(F)ccc2F)c(-c2cncc(F)c2)c1Br)C(=O)O
2. CCOC(=O)COc1nn(-c2ccccn2)c(-c2ccc(F)nc2)c1[N+](=O)[O-]
3. COC(=O)[C@@H](C)NC(=O)COc1nn(-c2ccccn2)c(-c2ccnc(F)c2)c1Br
4. CCOC(=O)COc1nn(-c2ccccn2)c(-c2ccc(Cl)nc2)c1Cl
5. CCOC(=O)COc1nn(-c2cccc(C)n2)c(-c2ccc(F)nc2)c1Cl
6. COC(=O)CCOC(=O)COc1nn(-c2cccc(C)n2)c(-c2ccc(F)nc2)c1Br
7. CCOC(=O)COc1nn(-c2ccncc2)c(-c2ccc(F)nc2)c1Br
8. O=C(COc1nn(-c2ncccc2F)c(-c2ccc(F)nc2)c1C1CC1)OCC1COC1

10
0
0
0
20
0
0
10

Look up Post-emergence action against ORYSA in % for the entries below, preserving their order.
1. Cc1cccc(-n2nc(OCC(=O)O)c(Cl)c2-c2ccc(F)nc2)n1
2. COC(=O)[C@H](C)COC(=O)COc1nn(-c2ccnc(Cl)c2)c(-c2ccc(F)nc2)c1Br
3. O=C(O)C1CCCN1C(=O)COc1nn(-c2ccccn2)c(-c2ccc(F)nc2)c1Br (stereo not shown)
4. COC(=O)CCOC(=O)COc1nn(-c2ccccn2)c(-c2cncc(F)c2)c1Cl

1. 0
2. 0
3. 0
4. 0

Which Post-emergence action against ORYSA in % is listed for CSCCOC(=O)COc1nn(-c2ccccn2)c(-c2ccc(F)nc2)c1Br ?
0

====

What Pre-emergence action against ECHCG in % was measured for each of the following?
System: Echinochloa crus-galli (ECHCG)
Assay: Pre-emergence herbicidal action against ECHCG
Format: in vivo
Conditions: dosage 320 g/ha
One number for each entry, in %.

Before answering, review these 7 worked examples.
Compound	Unit descriptor	Pre-emergence action against ECHCG in %
COC(=O)[C@@H](C)Oc1nn(-c2nc(F)ccc2F)c(-c2ccc(F)nc2)c1C1CC1 [Example I-298]	%	100
COC(=O)C(C)NC(=O)[C@@H](C)Oc1nn(-c2ccccn2)c(-c2cncc(F)c2)c1Br (some centres unmarked) [Example I-190]	%	100
CCOC(=O)C(C)Oc1nn(-c2ccccn2)c(-c2ccc(F)nc2)c1C(F)(F)F (centres unmarked) [Example I-107]	%	100
O=C(O)COc1nn(-c2nc(F)ccc2F)c(-c2cncc(F)c2)c1C1CC1 [Example I-148]	%	100
C[C@@H](Oc1nn(-c2nc(F)ccc2F)c(-c2ccc(F)nc2)c1Br)C(=O)O [Example I-333]	%	90
CCOC(=O)CSc1nn(-c2ccccn2)c(-c2cncc(F)c2)c1I [Example I-152]	%	90
COC(=O)CCOC(=O)COc1nn(-c2ncccc2C(F)(F)F)c(-c2cncc(F)c2)c1Br [Example I-160]	%	90

Would you kindly look at the next entry?
Please give the measured Pre-emergence action against ECHCG in % for this compound: COC(=O)[C@@H](C)Oc1nn(-c2nc(F)ccc2F)c(-c2ccc(F)nc2)c1Br [Example I-319]
100

====

Assignment: determine reported Post-emergence action against AMARE in % for the given compounds.
System: Amaranthus retroflexus (AMARE)
Assay: Post-emergence herbicidal action against AMARE
Type: in vivo
Conditions: 80 g/ha, visual rating about 3 weeks after treatment vs untreated controls (100% = plants have died, 0% = like control plants)
Give bare numbers, in %.

Compound	Unit descriptor	Post-emergence action against AMARE in %
COC(=O)[C@H](C)NC(=O)COc1nn(-c2ccccn2)c(-c2ccc(F)nc2)c1Cl	%	80
O=C(COc1nn(-c2ncccc2F)c(-c2ccc(F)nc2)c1C1CC1)OCC(F)(F)F	%	90
COCCOC(=O)COc1nn(-c2ncccc2F)c(-c2ccc(F)nc2)c1C1CC1	%	90
COCCOCCOC(=O)COc1nn(-c2ncccc2F)c(-c2ccc(F)nc2)c1Br	%	90

Now, please, on to the next compound.
Sample COC(=O)C(C)NC(=O)[C@@H](C)Oc1nn(-c2ccccn2)c(-c2cncc(F)c2)c1Cl (some centres unmarked) — what was its Post-emergence action against AMARE in %?
80

====

Test system: Zea mays (ZEAMX)
Assay type: in vivo
Details: crop plant compatibility, 80 g/ha, effect vs untreated controls
Measured metric: Post-emergence action against ZEAMX in % (%)
Give bare numbers, in %.

Compound	Post-emergence action against ZEAMX in % / %
COCCOC(=O)COc1nn(-c2ncccc2F)c(-c2ccc(F)nc2)c1Br	20
CCOC(=O)C(C)Oc1nn(-c2ccccn2)c(-c2ccc(F)nc2)c1Br (racemic) [Example I-58]	20
C=CCNC(=O)COc1nn(-c2ncccc2F)c(-c2ccc(F)nc2)c1Br	0
CCOC(=O)COc1nn(-c2nc(F)ccc2F)c(-c2ccc(F)nc2)c1Br	10
CCOC(=O)COc1nn(-c2ncccc2C)c(-c2ccc(F)nc2)c1Cl	0
COC(=O)[C@@H](C)Oc1nn(-c2ccccn2)c(-c2ccc(Cl)nc2)c1Cl	10
COc1cccnc1-n1nc(OCC(=O)O)c(Cl)c1-c1ccc(F)nc1	0
O=C(COc1nn(-c2ncccc2F)c(-c2ccc(F)nc2)c1C1CC1)OCC1CC1	0

Parameters: items (list). Returns: Post-emergence action against ZEAMX in % for each item.
1. O=C(O)COc1nn(-c2nc(F)ccc2F)c(-c2ccc(F)nc2)c1Cl
2. COC(=O)[C@@H](C)Oc1nn(-c2ccccn2)c(-c2ccc(Cl)nc2)c1Br
3. O=C(COc1nn(-c2ncccc2F)c(-c2ccc(F)nc2)c1C1CC1)OCC1CCCC1

1. 10
2. 10
3. 20

====

Task for the reader: assign each of the following molecules its reported Post-emergence action against ORYSA in %.
Test system: Oryza sativa (ORYSA)
Assay type: in vivo
Details: crop plant compatibility, 20 g/ha, effect vs untreated controls
One number for each entry, in %.

Molecule	Unit descriptor	Reported value
COC(=O)CCOC(=O)COc1nn(-c2ccccn2)c(-c2cncc(F)c2)c1Cl	%	0
CC(C)=NOC(=O)COc1nn(-c2ncccc2F)c(-c2ccc(F)nc2)c1C1CC1	%	0

// each molecule listed below needs its Post-emergence action against ORYSA in %
1. COC(=O)CCOC(=O)COc1nn(-c2ccnc(Cl)c2)c(-c2ccc(F)nc2)c1Br
2. CC(C)OC(=O)COc1nn(-c2ncccc2F)c(-c2ccc(F)nc2)c1C1CC1
3. COC(=O)CCOC(=O)[C@@H](C)Oc1nn(-c2ccccn2)c(-c2cncc(F)c2)c1Br
4. COC(=O)C(C)COC(=O)COc1nn(-c2ncccc2F)c(-c2ccc(F)nc2)c1C1CC1 (centres unmarked)

0
0
0
0

For each entry beneath this line, provide reported Post-emergence action against ORYSA in %.
1. COC(=O)COc1nn(-c2ncccc2F)c(-c2cncc(F)c2)c1Br [Example I-49]
2. CCOC(=O)CN(C)S(=O)(=O)NC(=O)COc1nn(-c2ccccn2)c(-c2ccc(F)nc2)c1Br
3. C[C@@H](Oc1nn(-c2ncccc2F)c(-c2ccc(F)nc2)c1Br)C(=O)OCc1ccccn1
4. CC(C)=NOC(=O)[C@@H](C)Oc1nn(-c2ncccc2F)c(-c2ccc(F)nc2)c1Br

1: 0; 2: 10; 3: 0; 4: 10

# credit: patent US20240041042A1
